# test name: Elimination half life in Sprague-Dawley rat at 2 mg/kg, iv and 5 mg/kg, po
# Assay type: ADME, organism-based
# particulars: in vivo, read-out: beta t1/2 (converted)
Could you please report measured half-life for the items listed next?
One number for each entry, in h.

Cc1ccc2c(Nc3ccc(Cl)cc3)nccc2c1Nc1ncccc1-c1ccncn1 = 3.5
Cc1ccc2c(Nc3cccc(C(F)(F)F)c3)nccc2c1Nc1ncccc1-c1ccncn1 = 4.5
CNc1ncc2cc(-c3c(C)ccc4c(Nc5cc(C(C)(C)C)nn5C)nccc34)ccc2n1 = 3.9
Cc1ccc(C(=O)Nc2cccc(C(F)(F)F)c2)cc1Nc1ncccc1-c1ccncn1 = 1.3
CNc1ncc2cc(-c3cc(C(=O)Nc4cccc(C(F)(F)F)c4)ccc3C)ccc2n1 = 2.3
CNc1cc(-c2cccnc2Nc2c(C)ccc3c(Nc4ccc(Cl)cc4)nccc23)ncn1 = 4.7
CNc1cc(-c2cccnc2Nc2c(C)ccc3c(Nc4ccc(C#N)cc4)nccc23)ncn1 = 2.7
CNc1ncc2cc(-c3c(C)ccc4c(Nc5ccc6c(c5)NC(=O)C6(C)C)nccc34)ccc2n1 = 4.8
Cc1ccc2c(Nc3ccc(Cl)cc3)nccc2c1Nc1ncccc1-c1ncnc2[nH]cnc12.Cl.Cl.Cl = 3.5
C#Cc1cccc(Nc2nccc3c(Nc4ncccc4-c4cc(NC)ncn4)c(C)ccc23)c1 = 2.8

Next:
Record CNc1cc(-c2cccnc2Nc2c(C)ccc3c(Nc4ccc5sc(C)nc5c4)nccc23)ncn1 . Reported half-life: 2.9
